# testedSystem: human GPR119 (Homo sapiens, UniProt Q8TDV5)
# Construct: expressed in transfected cells
# Sequence (Q8TDV5 whole entry): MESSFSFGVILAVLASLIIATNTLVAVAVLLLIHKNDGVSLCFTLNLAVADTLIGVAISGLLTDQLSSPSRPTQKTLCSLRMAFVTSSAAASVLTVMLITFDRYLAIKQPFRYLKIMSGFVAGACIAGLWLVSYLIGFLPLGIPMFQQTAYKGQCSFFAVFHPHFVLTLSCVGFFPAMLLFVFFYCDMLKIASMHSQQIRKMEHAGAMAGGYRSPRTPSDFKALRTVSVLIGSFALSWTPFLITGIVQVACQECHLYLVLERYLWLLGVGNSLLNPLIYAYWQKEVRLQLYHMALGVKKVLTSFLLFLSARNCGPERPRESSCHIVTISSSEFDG
# experimentalDetails: Intracellular cAMP increase in human GPR119 introduced cells (HitHunter cAMP XS+ Assay)
# Assay type: cell-based
# condition: Table 17; method similar to Example 86; hGPR119 stable cells, intracellular cAMP
experimentalReadout: pEC50
Give only the number. pEC50 is defined as minus log10 of concentration in molar units.

# annotated cases, reported pEC50 shown
- moleculeSmiles: "Cc1cc(S(C)(=O)=O)ccc1OCc1ccc(C2CCN(C(=O)OC(C)(C)C)CC2)cn1"
  testedSystem: "human GPR119 (Homo sapiens, UniProt Q8TDV5)"
  recordedResult: 7.62
- moleculeSmiles: "Cc1cc(C2CCN(C(=O)OC(C)(C)C)CC2)cnc1COc1ccc(S(C)(=O)=O)cc1"
  testedSystem: "human GPR119 (Homo sapiens, UniProt Q8TDV5)"
  recordedResult: 7.55

## Task Tell me the measured pEC50 of Cc1cc(C2CCN(C(=O)OC(C)(C)C)CC2)cnc1COc1ccc(S(C)(=O)=O)cc1Cl , please.
## Result 7.18

## Task Tell me the measured pEC50 of CC(C)(C)OC(=O)N1CCC(c2ccc(COc3ccc(S(N)(=O)=O)cc3)nc2)CC1 , please.
## Result 7.23

## Task Tell me the measured pEC50 of CC(C)(C)OC(=O)N1CCC(c2cnc(COc3ccc(S(C)(=O)=O)cc3)c(C(F)(F)F)c2)CC1 , please.
## Result 7.32

## Task Tell me the measured pEC50 of Cc1cc(S(C)(=O)=O)ccc1OCc1ncc(C2CCN(C(=O)OC(C)(C)C)CC2)cc1C , please.
## Result 7.23

## Task Tell me the measured pEC50 of CC(C)(C)OC(=O)N1CCC(c2cnc(COc3ccc(S(C)(=O)=O)cc3)c(Cl)c2)CC1 , please.
## Result 7.53

## Task Tell me the measured pEC50 of CC(C)(C)OC(=O)N1CCC(c2ccc(CSc3ccc(S(C)(=O)=O)cc3)nc2)CC1 , please.
## Result 6.89

---

# testedSystem: human GPR119 (Homo sapiens, UniProt Q8TDV5)
# Construct: expressed in transfected cells
# experimentalDetails: Intracellular cAMP increase in human GPR119 introduced cells (HitHunter cAMP XS+ Assay)
# Type: cell-based
# condition: Table 17; method similar to Example 86; hGPR119 stable cells, intracellular cAMP
// EC50 lookup, one value per entry
Write down the numeric answer in nM and omit the unit.

- molecule: "CC(C)(C)OC(=O)N1CCC(c2ccc(CCc3ccc(S(C)(=O)=O)cc3)nc2)CC1 [Example 79]"
  testedSystem: "human GPR119 (Homo sapiens, UniProt Q8TDV5)"
  EC50 [nM]: 142

## Task Tell me the measured EC50 of CCc1cnc(N2CCC(c3ccc(COc4ccc(-n5cnnn5)cc4)nc3)CC2)nc1 [Example 51] , please.
## Result 257

## Task Tell me the measured EC50 of CCc1cnc(N2CCC(c3ccc(COc4ccc(S(C)(=O)=O)cc4)nc3)CC2)nc1 [Example 48] , please.
## Result 137

## Task Tell me the measured EC50 of CC(C)(C)OC(=O)N1CCC(c2ccc(COc3ccc(S(C)(=O)=O)c(F)c3)nc2)CC1 [Example 18] , please.
## Result 85.4

## Task Tell me the measured EC50 of CC(C)(C)OC(=O)N1CCC(c2ccc(COc3ccc(-n4cncn4)cc3)nc2)CC1 [Example 16] , please.
## Result 129

## Task Tell me the measured EC50 of CC(C)(C)OC(=O)N1CCC(c2ccc(COc3ccc(S(C)(=O)=O)cc3F)nc2)CC1 [Example 12] , please.
## Result 54.7

// data source = patent US20140018537A1
